FYI, the data here is from the supplement of paper PMC9446081.

Tested on: Escherichia coli K-12 BW25113
Assay: relative growth (OD600 normalised to plate interquartile mean) (fraction); higher = less growth inhibition, active = 0.2 or less
Conditions: 50 µM; LB; incubation time: overnight (16-24 h)
Screen size: about 39,000 compounds; about 220 (0.56%) showed activity. This is one part of a sample in which actives are shown more often than they occur.
Recorded measurements of relative growth, one per entry
Recorded metric: relative growth

[
  {
    "Smiles str": "CC(C)CNC(=O)C[C@H]1NCCNC1=O",
    "Assayed system": "Escherichia coli K-12 BW25113",
    "Reported value": 0.923
  },
  {
    "Smiles str": "Cc1ccc(S[C@]2(C(=O)NCCN3CCOCC3)CC(=O)N(C(C)C)[C@@H]2c2ccc(CO)cc2)cc1",
    "Assayed system": "Escherichia coli K-12 BW25113",
    "Reported value": 1
  },
  {
    "Smiles str": "CCCCCCCCCC(=O)N[C@@H](Cc1c[nH]c2ccccc12)C(=O)N[C@H](CC(N)=O)C(=O)N[C@@H](CC(=O)O)C(=O)N[C@@H]1C(=O)NCC(=O)N[C@@H](CCCN)C(=O)N[C@@H](CC(=O)O)C(=O)N[C@H](C)C(=O)N[C@@H](CC(=O)O)C(=O)NCC(=O)N[C@H](CO)C(=O)N[C@@H]([C@H](C)CC(=O)O)C(=O)N[C@@H](CC(=O)c2ccccc2N)C(=O)O[C@@H]1C",
    "Assayed system": "Escherichia coli K-12 BW25113",
    "Reported value": 0.952
  },
  {
    "Smiles str": "C[C@H]1CN([C@@H](C)CO)C(=O)Cc2cc(NC(=O)Nc3ccc(C(F)(F)F)cc3)ccc2O[C@@H]1CN(C)C(=O)Nc1ccc(F)cc1",
    "Assayed system": "Escherichia coli K-12 BW25113",
    "Reported value": 1.01
  },
  {
    "Smiles str": "O=C(CN1CCOCC1)NCC[C@H]1CC[C@@H](NC(=O)Nc2ccccc2)[C@@H](CO)O1",
    "Assayed system": "Escherichia coli K-12 BW25113",
    "Reported value": 1.01
  },
  {
    "Smiles str": "CNC[C@@H]1Oc2cc(C#CCN(C)C)ccc2S(=O)(=O)N([C@@H](C)CO)C[C@H]1C",
    "Assayed system": "Escherichia coli K-12 BW25113",
    "Reported value": 0.981
  },
  {
    "Smiles str": "Nc1ncn([C@@H]2O[C@H](CO)[C@@H](O)[C@H]2O)c(=O)n1",
    "Assayed system": "Escherichia coli K-12 BW25113",
    "Reported value": 0.458
  },
  {
    "Smiles str": "COc1ccc(S(=O)(=O)Nc2ccc3c(c2)C(=O)N([C@@H](C)CO)C[C@@H](C)[C@H](CN(C)S(=O)(=O)c2cn(C)cn2)OCCCC[C@H](C)O3)cc1",
    "Assayed system": "Escherichia coli K-12 BW25113",
    "Reported value": 0.989
  }
]

---

Tested on: Escherichia coli K-12 BW25113;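 further: Wild-type cells incubated without shaking, value is the mean of two biological replicates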
Experiment: relative growth (OD600 normalised to plate interquartile mean) (fraction); higher = less growth inhibition, active = 0.2 or less
Details: 50 µM; LB; incubation time: overnight (16-24 h)
The campaign covered roughly 39,000 compounds. About 220 (0.56%) showed activity. The sample holds actives, similar compounds and a random draw of the others, so the mix is not that of the screen.

[
  {
    "Smiles str": "CCCCCCCCCCCCCCCC[N+](C)(C)C",
    "Assayed system": "Escherichia coli K-12 BW25113",
    "relative growth": 0.0755
  },
  {
    "Smiles str": "C[C@H](CO)N1C[C@H](C)[C@@H](CN(C)CC2CC2)Oc2c(NS(=O)(=O)c3cn(C)cn3)cccc2C1=O",
    "Assayed system": "Escherichia coli K-12 BW25113",
    "relative growth": 0.999
  },
  {
    "Smiles str": "C[C@@H]1CCCCO[C@H](CN(C)C(=O)c2ccccc2)[C@@H](C)CN([C@@H](C)CO)C(=O)c2cc(NS(=O)(=O)c3ccccc3)ccc2O1",
    "Assayed system": "Escherichia coli K-12 BW25113",
    "relative growth": 0.956
  },
  {
    "Smiles str": "Cc1c(-c2ccccc2)n(C[C@@H](O)CN)c2ccccc12",
    "Assayed system": "Escherichia coli K-12 BW25113",
    "relative growth": 0.892
  },
  {
    "Smiles str": "C[C@@H]1CN([C@@H](C)CO)C(=O)Cc2cc(NC(=O)C3CCCCC3)ccc2O[C@H]1CN(C)C(=O)Nc1cccc2ccccc12",
    "Assayed system": "Escherichia coli K-12 BW25113",
    "relative growth": 1.01
  }
]
